# SYSTEM_UNDER_TEST: T1, recombinant human TfR (r human TfR: Sino Biological Inc.) (human, UniProt P02786 89-760)
# T1 construct: Bought product; also called r human TfR-ECD (Histag); hTfR; not shown: histidine tag attached to the N-terminus
# MEASUREMENT_DESCRIPTION: BLI (Octet RED96), His-tagged TfR ECD loaded on Ni-NTA sensor, antibody as analyte
READOUT_LABEL: Kd (pM)
# value in pM; strip the unit string

INSERT INTO results (binder, readout_label, unit_info, reported_measurement) VALUES
  ('anti-hTfR antibody No. 1 (antibody, V domains shown, Mouse hybridoma antibody purified on Protein G; also called mouse anti-hTfR antibody No. 1; product of Clone 1 line) VH: EVQLQESGGGLVQPGGSLKLSCAASGLTFSNYGMSWIRQTPDKRLELVANINTNGGSTYYPDSVKGRFTISRDNAKNTLYLQMNSLKSEDTAIYYCTNNRYDEDYWGQGTSVTVSS VL: DIVLTQSSKFMSTSVGDRVSITCKASQDVNSAVAWFQQKPGQSPKLLIYWTSTRHTGVPDRFTGSGSGTVYTLTISSVQAEDLALYYCQQHYSTPRTFGGGTKLEIKR', 'Kd', 'pM', 5.09);

Q: I would be grateful if you could share the reported Kd for anti-hTfR antibody No. 10 (antibody, V domains shown, Mouse hybridoma antibody purified on Protein G; also called mouse anti-hTfR antibody No. 10; product of Clone 10 line) VH: EVQLQESGGGLVKPGGSLKLSCEASGITFRNYAMSWVRQTPEKRLEWVATISSYGGYTYYADSVKGRFTVSRDNAGNTLYLQMSSLRSEDTAMYHCARQEVPYPYPMDNWGQGTSVIVSS VL: DIVMTQTPSSLSASLGERVSLTCRPSQEISGYLSWLQQKPDGTIKRLIYAASTLDSGVPKRFSGSRSGSDYSLTISSLESEDFADYYCLQYASYPRTFGGGTKLEIK .
A: 1130
